# growth inhibition per entry
Assay: antimalarial activity against Dd2 strain (AID 2302);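 further: 0% = DMSO untreated growth and 100% = chloroquine plus artemisinin killed control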
Conditions: P. falciparum Dd2 in RBCs, LDH growth readout, 72 h; at 2 µM; hits give high values

{"columns": ["compound", "growth inhibition, %"],
 "data": [
  ["COCc1ccccc1C(=O)NCCOc1cc(C)cc(C)c1", 95],
  ["CN(C)S(=O)(=O)c1ccc(N2CCN(CCC3(c4cccc(F)c4)CCN(C(=O)C(C)(C)C)CC3)CC2)c2nonc12", 85],
  ["OCCN1CCN(Cc2cccc(-c3ccc(-c4nc5ccc(C(F)(F)F)cc5[nH]4)s3)c2)CC1", 98],
  ["Oc1cccc(/C=N/Nc2ccnc3cc(Cl)ccc23)c1", 95],
  ["FC(F)(F)c1ccc2nc(-c3ccc(-c4cccc(CNCC5CCCO5)c4)s3)[nH]c2c1 (stereo not given)", 99]
]}
